# credit: the Human Domainome abundance scans (Beltran et al. 2025)

B1: Membrane-associated guanylate kinase, WW and PDZ domain-containing protein 3, residues 287 to 329; numbered along this chain, Q5TCQ9 (parent)
chain: MRDETLEPLPKNWEMAYTDTGMIYFIDHNTKTTTWLDPRLCKK

Variants of: B1
test-name: abundance fitness (aPCA) (normalised: wild type 0, dead -1); higher = more abundant; growth selection in yeast, the domain comes from the species named
test-conditions: Homo sapiens
value-kind: abundance fitness
Lab note: write the figure by itself, no unit.

T32Y = -0.417

Below: the item to evaluate.
I would be grateful if you could share the reported abundance fitness for T34S . -0.106
